All values here come from patent US9884821B2.

# Test system: AMPK
# assayText: AMPK activation effect (AMPK [pT172] ELISA) in MCF7 cells
# Type: cell-based, human
# experimentalParameters: concentration at which AMPK activation reached 150%, 24 hours
observable: AC150 (µM)

INSERT INTO assay_data (molecule, valuecomparator, valueobserved) VALUES
  ('CC1CCCN(C(=N)NC(=N)Nc2ccc(OC(F)(F)F)cc2)C1.Cl (stereo not shown)', '=', 0.5),
  ('CC1CCCCN1C(=N)NC(=N)Nc1ccc(OC(F)(F)F)cc1.Cl (stereo not shown)', '=', 2.0),
  ('CC1CCCC(C)N1C(=N)NC(=N)Nc1ccc(OC(F)(F)F)c(F)c1.Cl (stereo not shown)', '=', 3.1),
  ('CC1CCCN(C(=N)NC(=N)Nc2ccc(Br)cc2)C1.Cl (stereo not shown)', '=', 13.7),
  ('Cl.N=C(NC(=N)N1CC=CCC1)Nc1ccc(OC(F)(F)F)cc1', '=', 0.15),
  ('Cl.N=C(NC(=N)N1CC=CCC1)Nc1ccc(F)c(C(F)(F)F)c1', '=', 0.62),
  ('Cl.N=C(NCc1cccc(OC(F)(F)F)c1)NC(=N)N1CC=CCC1', '=', 2.1),
  ('CC1CCCCN1C(=N)NC(=N)Nc1ccc(Cl)c(C(F)(F)F)c1.Cl (stereo not shown)', '=', 1.1),
  ('CC1CCCC(C)N1C(=N)NC(=N)Nc1ccc(OC(F)(F)F)cc1.Cl (stereo not shown)', '=', 4.7),
  ('CC1CCCCN1C(=N)NC(=N)Nc1ccc(F)c(C(F)(F)F)c1.Cl (stereo not shown)', '=', 0.5),
  ('CC1CCCN(C(=N)NC(=N)Nc2ccc(OC(F)(F)F)c(F)c2)C1.Cl (stereo not shown)', '=', 3.9),
  ('CC1=CCN(C(=N)NC(=N)Nc2cccc(OC(F)(F)F)c2)C1.Cl', '=', 2.2),
  ('CC1CCCC(C)N1C(=N)NC(=N)Nc1ccc(F)cc1.Cl (stereo not shown)', '=', 2.8),
  ('CC1=CCN(C(=N)NC(=N)Nc2ccc(F)cc2)C1.Cl', '=', 38.3),
  ('Cl.N=C(NC(=N)N1CC=CC1)Nc1ccc(C(F)(F)F)cc1', '=', 2.8),
  ('Cl.N=C(NC(=N)N1CC=CC1)Nc1cccc(OC(F)(F)F)c1', '=', 2.7),
  ('Cl.N=C(NC(=N)N1CC=CC1)Nc1cccc(C(F)(F)F)c1', '>', 50),
  ('Cl.N=C(NC(=N)N1CC=CCC1)Nc1ccc(OC(F)(F)F)c(F)c1', '=', 0.29),
  ('CC1=CCN(C(=N)NC(=N)Nc2ccc(OC(F)(F)F)cc2)C1.Cl', '=', 1.6);
